In this section, each of the binders is paired with its reported EC50.
Target: T1, human CD96v2 expressed on cells (CHO cells; transiently transfected HEK cells) (human, UniProt P40200-2 22-569)
T1 construct: whole, on cells; the cell is named under assay; also called CHO-huCD96; hCD96v2
T1 sequence (looked up): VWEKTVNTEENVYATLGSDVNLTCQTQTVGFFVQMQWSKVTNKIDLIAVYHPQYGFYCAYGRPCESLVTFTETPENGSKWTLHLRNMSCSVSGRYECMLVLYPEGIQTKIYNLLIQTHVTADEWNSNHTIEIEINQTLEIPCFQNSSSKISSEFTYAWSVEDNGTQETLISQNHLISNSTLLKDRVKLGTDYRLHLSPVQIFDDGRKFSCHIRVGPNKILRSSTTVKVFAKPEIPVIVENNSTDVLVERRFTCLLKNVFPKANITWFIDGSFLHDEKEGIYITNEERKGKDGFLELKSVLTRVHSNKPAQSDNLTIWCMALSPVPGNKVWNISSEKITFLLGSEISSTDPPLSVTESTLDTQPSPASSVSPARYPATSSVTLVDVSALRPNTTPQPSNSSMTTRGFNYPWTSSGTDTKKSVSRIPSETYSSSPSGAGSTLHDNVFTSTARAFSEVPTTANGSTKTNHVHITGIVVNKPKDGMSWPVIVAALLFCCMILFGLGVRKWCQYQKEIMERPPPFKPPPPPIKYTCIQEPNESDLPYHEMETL
Assay: flow cytometry on CHO cells expressing human CD96v2
Kindly provide the numeric value in nM only, without the unit symbol.

Recorded results for 2 binders are shown here.
binder: 42Y073-86F04-6 (antibody, V domains shown, Fully human antibody) VH: QVQLVQSGAEVKKPGSSVKVSCKASGGTFSGHAISWVRQAPGQGLEWMGGIIPIFGRARYAQKFQGRVTITADESTSTAYMELSSLRSEDTAVYYCARLLGESGMDVWGQGTTVTVSS VL: DIQMTQSPSSLSASVGDRVTITCRASQSISSYLNWYQQKPGKAPKLLIYAASSLQSGVPSRFSGSGSGTDFTLTISSLQPEDFATYYCQQPYFSPPTFGGGTKVEIK
valueReported: 0.06

binder: 42Y073-86F08-3 (antibody, V domains shown, Fully human antibody) VH: QVQLVQSGAEVKKPGSSVKVSCKASGGTFVNYAISWVRQAPGQGLEWMGGIIPALGTANYAQKFQGRVTITADESTSTAYMELSSLRSEDTAVYYCARGAGYYGDKDPMDVWGQGTTVTVSS VL: DIQLTQSPSSLSASVGDRVTITCRASQSISSYLNWYQQKPGKAPKLLIYAASSLQSGVPSRFSGSGSGTDFTLTISSLQPEDFATYYCQQVLHTITFGGGTKVEIK
valueReported: 0.04

Input: Give the measured EC50 for 42Y073-86F08-4 (antibody, V domains shown, Fully human antibody) VH: QVQLVQSGAEVKKPGSSVKVSCKASGGTFSEYAIHWVRQAPGQGLEWMGNIIPIFGTAGYAQKFQGRVTITADESTSTAYMELSSLRSEDTAVYYCARGAGYYGDKDPMDVWGQGTTVTVSS VL: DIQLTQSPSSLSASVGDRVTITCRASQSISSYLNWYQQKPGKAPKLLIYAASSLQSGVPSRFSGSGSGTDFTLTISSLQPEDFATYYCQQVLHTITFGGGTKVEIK
Output: 0.04
